Data provenance is patent US20260125378A2.

# System name: Full length DGKζ (in-house protein M1-V929) (Homo sapiens, UniProt Q13574)
# Construct: His (N); TEV site (N)
# Sequence (Q13574 1-929 isoform Q13574-4): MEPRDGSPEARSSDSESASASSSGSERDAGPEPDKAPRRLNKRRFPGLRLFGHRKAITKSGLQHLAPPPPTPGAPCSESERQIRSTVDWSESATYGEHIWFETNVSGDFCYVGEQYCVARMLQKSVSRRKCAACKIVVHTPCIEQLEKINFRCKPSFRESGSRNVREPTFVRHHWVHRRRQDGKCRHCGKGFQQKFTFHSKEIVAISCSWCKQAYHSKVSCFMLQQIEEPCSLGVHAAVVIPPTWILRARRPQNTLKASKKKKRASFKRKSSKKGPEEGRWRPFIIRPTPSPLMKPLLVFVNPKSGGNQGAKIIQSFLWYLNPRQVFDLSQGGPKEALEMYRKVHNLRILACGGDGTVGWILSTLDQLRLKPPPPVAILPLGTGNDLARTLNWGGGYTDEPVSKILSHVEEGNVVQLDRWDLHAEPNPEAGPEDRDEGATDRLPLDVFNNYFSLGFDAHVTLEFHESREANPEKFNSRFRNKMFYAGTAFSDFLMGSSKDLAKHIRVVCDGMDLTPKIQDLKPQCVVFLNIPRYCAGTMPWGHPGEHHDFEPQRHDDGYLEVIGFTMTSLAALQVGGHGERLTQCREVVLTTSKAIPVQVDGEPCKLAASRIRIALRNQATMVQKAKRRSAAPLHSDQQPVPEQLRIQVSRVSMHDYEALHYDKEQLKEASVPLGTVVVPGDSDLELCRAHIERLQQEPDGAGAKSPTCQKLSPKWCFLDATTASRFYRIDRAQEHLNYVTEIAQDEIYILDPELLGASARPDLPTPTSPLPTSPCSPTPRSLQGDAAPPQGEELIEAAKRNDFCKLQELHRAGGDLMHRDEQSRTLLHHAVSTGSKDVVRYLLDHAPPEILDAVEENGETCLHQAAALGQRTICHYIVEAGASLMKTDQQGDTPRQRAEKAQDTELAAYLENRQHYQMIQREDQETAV
# Method notes: Biochemical DGK IC50 assay (ADP-Glo, lipid micelle substrate), DGKζ
# Run parameters: 1 hour preincubation, 1 hour reaction, room temperature
Parameter: IC50 (µM)

// solved cases for IC50 follow
Given the entry CCn1c(CC#N)nc2c(N3C[C@@H](C)N(C(C)c4ccc5c(c4)OC(C)(C)O5)C[C@@H]3C)c(F)c(=O)n(C)c21 (some centres unmarked) , report its measured IC50. 0.074

Given the entry CCn1c(CC#N)nc2c(N3C[C@@H](C)N(C(C)c4ccc(C)c(C(F)(F)F)c4)C[C@@H]3C)nc(=O)n(C)c21 (some centres unmarked) , report its measured IC50. 0.019

[A] CCn1c(CC#N)nc2c(N3C[C@@H](C)N(C(C)c4csc(C(F)(F)F)n4)C[C@@H]3C)nc(=O)n(C)c21 (some centres unmarked)
[B] CC(c1cc2c(cc1F)OCC(C)(C)O2)N1C[C@H](C)N(c2nc(=O)n(C)c3c2nc(CC#N)n3C)C[C@H]1C (single isomer, unassigned) [Compound A69b]
Field: entry with larger IC50 (options A / B ). Label of pick, please. A
(A: 0.839 µM, B: 0.147 µM)
